Listed below: Ki values for each entry.
Molecular target: transfected human CRF1 receptors in HEK293T cells (Homo sapiens, UniProt P34998)
Sequence (P34998 24-415): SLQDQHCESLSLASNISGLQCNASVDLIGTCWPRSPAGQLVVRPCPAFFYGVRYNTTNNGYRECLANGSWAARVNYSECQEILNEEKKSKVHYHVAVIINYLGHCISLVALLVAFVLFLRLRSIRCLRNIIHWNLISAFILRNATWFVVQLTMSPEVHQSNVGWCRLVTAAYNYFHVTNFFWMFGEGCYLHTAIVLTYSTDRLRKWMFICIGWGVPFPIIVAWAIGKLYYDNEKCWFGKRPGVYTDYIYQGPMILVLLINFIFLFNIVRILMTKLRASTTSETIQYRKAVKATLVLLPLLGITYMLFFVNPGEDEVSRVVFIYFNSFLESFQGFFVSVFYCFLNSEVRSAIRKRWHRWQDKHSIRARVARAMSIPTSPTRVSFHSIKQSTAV
Assay: In vitro competition binding assay at 23 °C vs. [125I]-Tyr0-sauvagine
Settings: Ki (nM) ± SEM, 23 °C; vs. [125I]-Tyr0-sauvagine; HEK293T cell membranes
Unit nM implied. Number only.

Here's what some known entries look like.
1) CCN(CCCCF)c1cc(C)nc2c(-c3ccc(Cl)cc3Cl)c(C)nn12 ... 0.47
2) Cc1cc(N(CCF)CCCCF)n2nc(C)c(-c3ccc(Cl)cc3Cl)c2n1 ... 0.59
3) Cc1cc(N(C)CCCCF)n2nc(C)c(-c3ccc(Cl)cc3Cl)c2n1 ... 1.07
4) CCCCN(CC)c1cc(C)nc2c(-c3ccc(Cl)cc3Cl)c(C)nn12 ... 0.46
5) CCN(CCOCCF)c1cc(C)nc2c(-c3ccc(Cl)cc3Cl)c(C)nn12 ... 1.17
6) Cc1cc(N(C)CCOCCF)n2nc(C)c(-c3ccc(Cl)cc3Cl)c2n1 ... 12.4

Next molecule, Ki to be filled in.
Form field: reported Ki of CCCN(CCC)c1cc(C)nc2c(-c3ccc(Cl)cc3Cl)c(C)nn12 0.47

Values were extracted from paper PMC4516694.
